Origin of measurements: ChEMBL document CHEMBL1153054

experiment: Inhibition of Mycobacterium tuberculosis glutamine synthetase; details: read-out: IC50
pIC50: −log10 of the molar value.
reported-property: pIC50

Example entries and their recorded answers appear below.
| compound-structure-string | pIC50 |
| --- | --- |
| COc1ccc(-c2nc3ccc(C(F)(F)F)cn3c2NC2CCCC2)cc1O | < 4.30 |
| COc1ccc(-c2nc3ccc(C)cn3c2NC2CCCC2)cc1O | < 4.30 |
| COc1ccc(-c2nc3ccc(-c4ccncc4)cn3c2NC2CCCC2)cc1O | < 4.30 |
| Brc1ccc2nc(-c3ccccc3)c(NC3CCCC3)n2c1 | < 4.30 |
| COc1ccc(-c2nc3ccc(C#N)cn3c2NC2CCCC2)cc1O | < 4.30 |

# ---- query compound ----
Identify pIC50 associated with the compound COc1ccc(-c2nc3ccc(Cl)cn3c2NC2CCCC2)cc1O
4.95

====

test: Inhibition of Mycobacterium tuberculosis glutamine synthetase; conditions: read-out: IC50
pIC50: −log10 of the molar value.
Readings of pIC50 for the listed molecules

| compound-structure-string | pIC50 |
| --- | --- |
| Brc1ccc2ncc(NC3CCCC3)n2c1 | < 4.30 |
| COc1ccc(-c2nc3c(C)cc(Br)cn3c2NC2CCCC2)cc1O | 4.90 |
| COc1ccc(-c2nc3ccc(I)cn3c2NC2CCCC2)cc1O | 5.32 |
| COc1cc(-c2nc3ccc(Br)cn3c2NC2CCCC2)ccc1O | < 4.30 |
| COc1ccc(-c2nc3ccc(-c4ccccc4)cn3c2NC2CCCC2)cc1O | < 4.30 |
| O=[N+]([O-])c1cccc(-c2nc3ccc(Br)cn3c2NC2CCCC2)c1 | < 4.30 |
| Oc1cccc(-c2nc3ccc(Br)cn3c2NC2CCCC2)c1 | < 4.30 |
| O=C(O)c1cccc(-c2nc3ccc(Br)cn3c2NC2CCCC2)c1 | 6.42 |

Give recorded pIC50. COc1cccc(-c2nc3ccc(Br)cn3c2NC2CCCC2)c1OC
< 4.30

Answer with reported pIC50 of COc1ccc(-c2nc3ccc(Oc4ccccc4)cn3c2NC2CCCC2)cc1O
< 4.30

Return value of pIC50 for input COc1ccc(-c2nc3ccc(Cc4ccccc4)cn3c2NC2CCCC2)cc1O , no commentary.
< 4.30

====

Entries and their measured IC50 follow.
assay: Inhibition of Mycobacterium tuberculosis glutamine synthetase; conditions: read-out: IC50

// worked examples, IC50 included
| compound-structure-string | IC50 |
| --- | --- |
| Nc1cccc(-c2nc3ccc(Br)cn3c2NC2CCCC2)c1 | 10.1 µM |
| COc1ccc(-c2nc3ccc(/C=C/c4ccccc4)cn3c2NC2CCCC2)cc1O | > 50 µM |
| Oc1ccccc1-c1nc2ccc(Br)cn2c1NC1CCCC1 | > 50 µM |
| COc1ccc(-c2nc3cccc(Br)n3c2NC2CCCC2)cc1O | > 50 µM |
| COc1ccc(-c2nc3c(Br)cc(Br)cn3c2NC2CCCC2)cc1O | > 50 µM |
| COc1ccc(-c2nc3ccc(CCc4ccccc4)cn3c2NC2CCCC2)cc1O | > 50 µM |
| COc1ccc(-c2nc3ccc(F)cn3c2NC2CCCC2)cc1O | > 50 µM |
| COc1ccc2nc(-c3ccc(OC)c(O)c3)c(NC3CCCC3)n2c1 | 31.3 µM |

Moving on to the next molecule.
Entry OCc1cccc(-c2nc3ccc(Br)cn3c2NC2CCCC2)c1 needs its IC50 filled in; supply it.
13.2 µM
